Test: Particle size and polydispersity index of nanoparticle compositions (Zetasizer Nano ZS)
Assay type: physicochemical
Conditions: Table 1A
parameter: PDI
Respond using a number only.

The cases that follow already have their PDI on record.
compound="CCCCCCCCCOC(=O)CCCCCCCN(CCO)CCCCCCCC(=O)OC(CC)CCCCCCCC (stereo not drawn) [Compound 35]" observedresult=0.18
compound="CCCCCCCCCOC(=O)CCCCCCCN(CCCCCCCC(=O)OC(CCCCCCCC)CCCCCCCC)CCCN/C(=N/[N+](=O)[O-])NC [Compound 200]" observedresult=0.15
compound="CCCCCCCCCOC(=O)CCCCCCCN(CCO)CCCCCCCC(=O)OC1CCC(CCCCC)CC1 (stereo not drawn) [Compound 79]" observedresult=0.18
compound="CCCCCCCCCOC(=O)CCCCCCCN(CCO)CCCCCCCCCC(=O)OC(CCCCCCCC)CCCCCCCC [Compound 23]" observedresult=0.09
compound="CCCCCCCCCOC(=O)CCCCCCCN(CCO)CCCCCCCC(=O)OC(CCCCC)CCCCCCCC (stereo not drawn) [Compound 33]" observedresult=0.13
compound="CCCC/C=C\\CCC(CC/C=C\\CCCC)OC(=O)CCCCCCCN(CCO)CCCCCC(=O)OCCCCCCCCCCC [Compound 61]" observedresult=0.15
compound="CCCCCCCCCOC(=O)CCCCCCCN(CCO)CCCCCCCC(=O)OC(CCCCCC)CCCCCC [Compound 56]" observedresult=0.17
compound="CCCCCCCC/C=C\\CCCCCCCCN(CCO)CCCCCCCC(=O)OC(CCCCCCCC)CCCCCCCC [Compound 31]" observedresult=0.15
compound="CCCCCCCCCOC(=O)CCCCCCCN(CCCCCCCC(=O)OC(CCCCCCCC)CCCCCCCC)CCCOC(=O)NC [Compound 175]" observedresult=0.16
compound="CCCCCCCCCOC(=O)CCCCCCCN(CCCCCCCC(=O)OC(CCCCCCCC)CCCCCCCC)CCOC(C)=O [Compound 9]" observedresult=0.12

query: Dear colleague, please send me the reported PDI for CCCCCCCCCOC(=O)CCCCCCCN(CCO)CCCCCCCC(=O)OC(C)CCCCCCCC (stereo not drawn) [Compound 36] when you can.
result: 0.17

query: Dear colleague, please send me the reported PDI for CCCCCCCCC(CC)OC(=O)CCCCCN(CCO)CCCCCCCC(=O)OC(CCCCCCCC)CCCCCCCC (stereo not drawn) [Compound 75] when you can.
result: 0.17

query: Dear colleague, please send me the reported PDI for CCCCCC/C=C\COC(=O)CCCCCCCN(CCO)CCCCCCCC(=O)OC/C=C\CCCCCC [Compound 139] when you can.
result: 0.54

* * *

# Lookup of reported 6 h BLI Lipid/MC3 keyed by entry
Test system: luciferase (Luc) mRNA
Assay: Luc expression, whole body bioluminescence after intravenous administration to mice
Format: in vivo
Conditions: Table 3E; intravenous
Respond using a number only.

The cases that follow already have their 6 h BLI Lipid/MC3 on record.
compound="CCCCCCCCCOC(=O)C(C)CCCCCCN(CCO)CCCCCCCC(=O)OC(CCCCCCCC)CCCCCCCC (stereo not drawn)" observedresult=1.24
compound=CCCCCCCCC(CCCCCCCC)OC(=O)CCCCCCCN(CCO)CCCCCCCC(=O)O[C@H](C)CCCCCCCC observedresult=1.72
compound="CCCCCCCCC(CCCCCCCC)C(=O)OCCCCCCCN(CCO)C(C)CCCCCCCCOC(=O)CCCCCCC (stereo not drawn)" observedresult=0.28
compound="CCCCCCCCCC(C)(O)CCCCCCCCN(CCO)CCCCCCCC(=O)OC(CCCCCCCC)CCCCCCCC (stereo not drawn)" observedresult=2.26
compound=CCCCCCCCCCCOC(=O)CCCCCN(CCO)CCCCCC(=O)OC(CCCCCCCCCC)CCCCCCCCCC observedresult=0.87

Could you now look at the following compound, please?
query: Look up and report measured 6 h BLI Lipid/MC3 (luciferase (Luc) mRNA) for the following compound: CCCCCCCCCOC(=O)C(C)CCCCCCN(CCO)CCCCCCCOC(=O)C(CCCCCCCC)CCCCCCCC (stereo not drawn)
result: 3.45

* * *

System: hEPO mRNA
Assay: hEPO expression after intravenous administration to rats
Assay type: in vivo, rat
Conditions: rat, intravenous, 2 mpk, 6 hours
parameter: hEPO expression (pg/mL)
Give your result in pg/mL as a bare value.

The cases that follow already have their hEPO expression on record.
compound="CCCCCCCCC(C)OC(=O)CCCCCCCN(CCO)CCCCCCCC(=O)OC(CCCCCCCC)CCCCCCCC (stereo not shown)" parameter="hEPO expression" observedresult=3.57e+07
compound="CCCCCCCCC(CC)OC(=O)CCCCCCCN(CCO)CCCCCCCC(=O)OC(CCCCCCCC)CCCCCCCC (stereo not shown)" parameter="hEPO expression" observedresult=3.04e+07
compound="CCCCCCCCC(CCC)OC(=O)CCCCCCCN(CCO)CCCCCCCC(=O)OC(CCCCCCCC)CCCCCCCC (stereo not shown)" parameter="hEPO expression" observedresult=2.81e+07

Could you now look at the following compound, please?
query: Dear colleague, please send me the reported hEPO expression for CCCCC/C=C\C/C=C\CCCCCCCCC(CCCCCCCC/C=C\C/C=C\CCCCC)OC(=O)CCCN(C)C [MC3, DLin-MC3-DMA, reference compound] when you can.
result: 9.29e+06

* * *

# Lookup of reported Lipid/MC3 hEPO expression keyed by entry
System: hEPO mRNA
Assay: hEPO expression after intravenous administration to rats
Format: in vivo, rat
Conditions: 2 mpk dose to rat, 6 hours after administration
Respond using a number only.

molecule="CCCCC/C=C\\C/C=C\\CCCCCCCCC(CCCCCCCC/C=C\\C/C=C\\CCCCC)OC(=O)CCCN(C)C [MC3, DLin-MC3-DMA, reference compound]" testedon="hEPO mRNA" parameter="Lipid/MC3 hEPO expression" observedresult=1
molecule="CCCCCCCCC(C)OC(=O)CCCCCCCN(CCO)CCCCCCCC(=O)OC(CCCCCCCC)CCCCCCCC (centres unmarked)" testedon="hEPO mRNA" parameter="Lipid/MC3 hEPO expression" observedresult=3.84
molecule=CCCCCCCCCOC(=O)CCCCCCCN(CCO)CCCCCCCC(=O)OC(CCCCCCCC)CCCCCCCC testedon="hEPO mRNA" parameter="Lipid/MC3 hEPO expression" observedresult=0.81
molecule=CCCCCCCCCCCOC(=O)CCCCCN(CCO)CCCCCCCC(=O)OC(CCCCCCCC)CCCCCCCC testedon="hEPO mRNA" parameter="Lipid/MC3 hEPO expression" observedresult=2.13

Could you now look at the following molecule, please?
query: Dear colleague, please send me the reported Lipid/MC3 hEPO expression for "CCCCCCCCCOC(=O)CCCN(CCO)CCCCCCCC(=O)OC(CCCCCCCC)CCCCCCCC" when you can.
result: 4.95

* * *

Experiment: Clinical chemistry and hematology in rat, 2 mpk i.v., 48 h
Assay type: in vivo
Details: intravenous, 48 h post dose
parameter: Concentration Alanine aminotransferase
Respond using a number only.

The cases that follow already have their Concentration Alanine aminotransferase on record.
molecule="CCCCCCCCCOC(=O)CCCCCCCN(CCO)CCCCCCCOC(=O)C(CCCCCCCC)CCCCCCCC [Compound 30]" observedresult=56
molecule="CCCCC/C=C\\C/C=C\\CCCCCCCCC(CCCCCCCC/C=C\\C/C=C\\CCCCC)OC(=O)CCCN(C)C [MC3, DLin-MC3-DMA, reference compound]" observedresult=339
molecule="CCCCCCCCCCCOC(=O)CCCCCN(CCO)CCCCCCCC(=O)OC(CCCCCCCC)CCCCCCCC [Compound 25]" observedresult=52
molecule="CCCCCC/C=C\\COC(=O)CCCCCCCN(CCO)CCCCCCCC(=O)OC(CCCCCCCC)CCCCCCCC [Compound 24]" observedresult=51.5

query: Dear colleague, please send me the reported Concentration Alanine aminotransferase for CCCCCCCCCN(CCO)CCCCCCCC(=O)OC(CCCCCCCC)CCCCCCCC [Compound 3] when you can.
result: 53.5

* * *

Test system: IL-6, IP-10
Assay: Cytokine induction in mice upon intravenous administration
Assay type: in vivo
Conditions: i.v., 0.5 mpk, 6 hours, in words
parameter: IP-10 induction

compound="CCCCCCCCCOC(=O)CCCCCCCN(CCCCCCCC(=O)OC(CCCCCCCC)CCCCCCCC)CC(O)CC (centres unmarked)" parameter="IP-10 induction" observedresult=lowest
compound=CCCCCCCCC(CCCCCCCC)OC(=O)CCCCCCCN(CCO)CCCCCCCC parameter="IP-10 induction" observedresult=highest
compound="CCCCCCCCCOC(=O)CCCCCCCN(CCCCCCCC(=O)OC(CCCCCCCC)CCCCCCCC)CC(C)O (centres unmarked)" parameter="IP-10 induction" observedresult=lowest
compound=CCCCCCCCCN(CCCO)CCCCCCCC(=O)OC(CCCCCCCC)CCCCCCCC parameter="IP-10 induction" observedresult=highest
compound=CCCCCCCCCOC(=O)CCCCCCCN(CCCCCCCC(=O)OC(CCCCCCCC)CCCCCCCC)CCOCCN(C)C parameter="IP-10 induction" observedresult=lowest
compound=CCCCCCCCCOC(=O)CCCCCCCN(CCCCO)CCCCCCCC(=O)OC(CCCCCCCC)CCCCCCCC parameter="IP-10 induction" observedresult=highest
compound=CCCCCCCCCOC(=O)CCCN(CCO)CCCCCCCC(=O)OC(CCCCCCCC)CCCCCCCC parameter="IP-10 induction" observedresult=highest

query: Dear colleague, please send me the reported IP-10 induction for "CCCCCCCCCN(CCO)CCCCCCCC(=O)OC(CCCCCCCC)CCCCCCCC" when you can.
result: highest

The reported measurements were obtained from patent US12263248B2.
